Tested on: Heat shock protein HSP 90 (rabbit reticulocyte lysate; luciferase refolding)
Assay notes: inhibitors of HSP90 chaperone activity – cell lysate, luminescence, primary screen (AID 1789);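 also: 0% = DMSO wells and 100% = 60 µM geldanamycin wells; inhibitors lower the luminescence because luciferase stays unfolded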
Assay setup: 3 h, at 5.6 µM
Hit rate of the full screen: of about 290,000 compounds, about 2,700 (0.93%) were called active.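 The calls were made as follows: active = inhibition above the screen-wide mean plus 3 SD, computed separately per campaign (cut at about 16% in these data); inactive = the rest.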 The list comes from a sample in which actives are over-represented; it also holds close analogues and randomly drawn compounds.
Lab note: assign the record to one of 1.0 = active, 0.0 = inactive

Example cases with answers are listed next.
molecule="CC(C)CN1CCN(Cc2ccccc2C(F)(F)F)CC1CCO (stereo not given)" experimental_target="Heat shock protein HSP 90 (rabbit reticulocyte lysate; luciferase refolding)" assigned_category=0.0
molecule=CC1=CC(=Cc2sc3ccccc3[n+]2C)C=C(C)O1 experimental_target="Heat shock protein HSP 90 (rabbit reticulocyte lysate; luciferase refolding)" assigned_category=0.0
molecule=O=c1c2ccccc2nc(-c2ccco2)n1-c1ccc(Br)cn1 experimental_target="Heat shock protein HSP 90 (rabbit reticulocyte lysate; luciferase refolding)" assigned_category=0.0

Each molecule tested received a call. Report the one for COc1cccc(-c2nc3ccc(N4CCN(C)CC4)cc3[nH]2)c1 .
1.0

Each molecule tested received a call. Report the one for O=C(NC(c1ccc(Cl)cc1)P(=O)(Oc1ccccc1)Oc1ccccc1)OCc1ccccc1 (stereo not given) .
0.0
